Protocol: In vivo Cmax in mice at dose of 50 mg/kg
Format: ADME, organism-based
Parameters: dose 50 mg/kg
Condition set: mouse
Parameter measured: Cmax

Check out these entries, answers already filled in.
INSERT INTO assay_data (compound, measured_result) VALUES
  ('CCCCCCCCCC(=O)N[C@@H](Cc1c[nH]c2ccccc12)C(=O)N[C@H](CC(N)=O)C(=O)N[C@@H](CC(=O)O)C(=O)N[C@@H]1C(=O)NCC(=O)N[C@@H](CCCNC(=N)N)C(=O)N[C@@H](CC(=O)O)C(=O)N[C@H](C)C(=O)N[C@@H](CC(=O)O)C(=O)NCC(=O)N[C@H](CO)C(=O)N[C@@H]([C@H](C)CC(=O)O)C(=O)N[C@@H](CC(=O)c2ccccc2N)C(=O)O[C@@H]1C', '254 µg/mL'),
  ('CCCCCCCCCC(=O)N[C@@H](Cc1c[nH]c2ccccc12)C(=O)N[C@H](CC(N)=O)C(=O)N[C@@H](CC(=O)O)C(=O)N[C@@H]1C(=O)NCC(=O)N[C@@H](CCCNC(=O)C2Cc3c([nH]c4ccccc34)CN2)C(=O)N[C@@H](CC(=O)O)C(=O)N[C@H](C)C(=O)N[C@@H](CC(=O)O)C(=O)NCC(=O)N[C@H](CO)C(=O)N[C@@H]([C@H](C)CC(=O)O)C(=O)N[C@@H](CC(=O)c2ccccc2N)C(=O)O[C@@H]1C (stereo partly drawn)', '418 µg/mL');

Problem: If you can, please state the reported Cmax value of CCCCCCCCCC(=O)N[C@@H](Cc1c[nH]c2ccccc12)C(=O)N[C@H](CC(N)=O)C(=O)N[C@@H](CC(=O)O)C(=O)N[C@@H]1C(=O)NCC(=O)N[C@@H](CCCNC(=O)c2c(N)ccc3ccccc23)C(=O)N[C@@H](CC(=O)O)C(=O)N[C@H](C)C(=O)N[C@@H](CC(=O)O)C(=O)NCC(=O)N[C@H](CO)C(=O)N[C@@H]([C@H](C)CC(=O)O)C(=O)N[C@@H](CC(=O)c2ccccc2N)C(=O)O[C@@H]1C .
Result: 230 µg/mL

* * *

Protocol: In vivo Tmax was determined in murine septicemia at dose of 50 mg/kg
Assay type: ADME, organism-based
Parameters: dose 50 mg/kg
Condition set: mouse
Each entry below lists one item and its recorded Tmax value.
Answer format: numeric, h implied, no suffix.

INSERT INTO measurements (compound, parameter_measured, unit_text, measured_result) VALUES
  ('CCCCCCCCCC(=O)N[C@@H](Cc1c[nH]c2ccccc12)C(=O)N[C@H](CC(N)=O)C(=O)N[C@@H](CC(=O)O)C(=O)N[C@@H]1C(=O)NCC(=O)N[C@@H](CCCNC(=O)c2c(N)ccc3ccccc23)C(=O)N[C@@H](CC(=O)O)C(=O)N[C@H](C)C(=O)N[C@@H](CC(=O)O)C(=O)NCC(=O)N[C@H](CO)C(=O)N[C@@H]([C@H](C)CC(=O)O)C(=O)N[C@@H](CC(=O)c2ccccc2N)C(=O)O[C@@H]1C', 'Tmax', 'h', 4),
  ('CCCCCCCCCC(=O)N[C@@H](Cc1c[nH]c2ccccc12)C(=O)N[C@H](CC(N)=O)C(=O)N[C@@H](CC(=O)O)C(=O)N[C@@H]1C(=O)NCC(=O)N[C@@H](CCCNC(=O)C(N)CCc2c[nH]c3ccccc23)C(=O)N[C@@H](CC(=O)O)C(=O)N[C@H](C)C(=O)N[C@@H](CC(=O)O)C(=O)NCC(=O)N[C@H](CO)C(=O)N[C@@H]([C@H](C)CC(=O)O)C(=O)N[C@@H](CC(=O)c2ccccc2N)C(=O)O[C@@H]1C (stereo partly drawn)', 'Tmax', 'h', 1);

Next item in the queue.
Problem: If you can, please state the reported Tmax value of CCCCCCCCCC(=O)N[C@@H](Cc1c[nH]c2ccccc12)C(=O)N[C@H](CC(N)=O)C(=O)N[C@@H](CC(=O)O)C(=O)N[C@@H]1C(=O)NCC(=O)N[C@@H](CCCN)C(=O)N[C@@H](CC(=O)O)C(=O)N[C@H](C)C(=O)N[C@@H](CC(=O)O)C(=O)NCC(=O)N[C@H](CO)C(=O)N[C@@H]([C@H](C)CC(=O)O)C(=O)N[C@@H](CC(=O)c2ccccc2N)C(=O)O[C@@H]1C .
Result: 0.5
